# Study System: T1, human MSLN-FL-his protein (human, UniProt Q13421 296-580)
# T1 construct: also called human MSLN full-length protein; hMSLN-FL-his; not shown: His tag
# T1 sequence (Q13421 other isoform, or with tags, fused parts or gaps): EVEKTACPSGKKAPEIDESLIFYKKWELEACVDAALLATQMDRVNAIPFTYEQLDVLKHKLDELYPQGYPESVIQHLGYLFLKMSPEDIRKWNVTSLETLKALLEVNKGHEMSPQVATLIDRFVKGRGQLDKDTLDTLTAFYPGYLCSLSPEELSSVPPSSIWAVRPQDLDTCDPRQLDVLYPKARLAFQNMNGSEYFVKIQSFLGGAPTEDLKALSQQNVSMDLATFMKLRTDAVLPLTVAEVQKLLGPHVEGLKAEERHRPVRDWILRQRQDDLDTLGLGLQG
# Measurement Description: ELISA, coated MSLN full-length;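 note: binding of chimeric antibodies to plate-bound antigen, read by TMB colour after acid stop, antibody incubated 2 h at 37 °C, negative control antibody run alongside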
Provide the reported OD450 at 0.001 nM of each item.
Give the value in OD450 but do not write OD450 after it.

**Query** // returns reported OD450 at 0.001 nM for input S009-F2.39.3 (antibody, human IgG1, kappa, V domains shown, Human-murine chimeric antibody, human IgG1/kappa constant regions) VH: QVQLQQPGTELVKPGASVKLSCKASGYTFTNYWMHWVKQRPGQGLEWIGNINPSSGDSYYNERFMSKAKMTVDKSSSTAYMQLSSLTSEDSAVYYCARSGGLWLAFWGPGTLVTVSA VL: DIVMTQSPSSLAMSVGQKVTMSCKSSQTLLNSVSQNNYLAWYQQKPGQSPTLLVYFASTRESGVPDRFIGGGSGTDFTLTISSVQAEDLADYFCQQHYRTPYTFGGGTNLEIKR
**Result** 0.05

**Query** Would you kindly share the measured OD450 at 0.001 nM for S009-F2.21.4 (antibody, human IgG1, kappa, V domains shown, Human-murine chimeric antibody, human IgG1/kappa constant regions) VH: EVQLQQSGPELVKPGASVKIPCKASGYTFTDYNMDWVKQSHGKSLEWIGDINPNNGGSIYNQRFKGKATLTVDKSSSTAYMELRSLTSEDSAVYYCARRAYYSTGYFDVWGTGTTVTVSS VL: QIVLTQSPALMSASPGEKVTITCSASSSISYMHWFQQKPGTSPKLWIYSTSTLASGVPARFSGSGSGTSYSLTISRMEAEDTATYYCQQRSSYPPTFGGGTKLEIKR ?
**Result** 0.09

**Query** If you can, please state the reported OD450 at 0.001 nM value of S009-F2.58.8 (antibody, human IgG1, kappa, V domains shown, Human-murine chimeric antibody, human IgG1/kappa constant regions) VH: QVQLLQSGAELAKPGASVKLSCKASGYTFTSYWVHWVKQRPGQGLEWIGYINPNSGYTKYNQKFKDKATLTADKSSSTAYMQLSSLTYEDSAVYYCADHYYGSSRDYFDYWGQGTTLTVSS VL: QIVLTQSPAIMSASPGEKVTMTCSASSSVSYMYWYQQRPGSSPRLLIYDTSNLASGVPVRFSGSGSGTSYSLTISRMEAEDAATYYCQQWNSYPYTFGGGTKLEIKR .
**Result** 0.06
